PROCEDURE_SUMMARY: Pre/postnatal development study
Assay type: in vivo, rat
REPORTED_CONDITIONS: female, rat, in vivo; oral, gestation Day 6 to lactation/post-partum Day 20; highest dosage level tested; read-out: no-observed-adverse-effect level (NOAEL)
RESULT_TYPE: NOAEL (mg/kg/day)
Numeric only. Scale: mg/kg/day

**Q:** For the compound CC(C)n1c(=O)cc(N[C@@H](C)c2ccccc2)[nH]c1=O , give its measured NOAEL value.
**A:** 1.5
